SYSTEM: HLA-A*02:03
ASSAY PROCEDURE: IEDB peptide-MHC binding, cellular MHC/competitive/fluorescence; bounds were set here for any values at or beyond the usual limits of such assays
EXPERIMENTAL CONDITIONS: source organism: Influenza A virus
pIC50: −log10 of the molar value.
Each entry below carries its reported pIC50.

| RECORD SEQUENCE | BOUND OPERATOR | pIC50 |
| --- | --- | --- |
| PACVYGPA | ≤ | 4.15 |
| ATYQRTRA | ≤ | 4.15 |
| QARQMVQAMRA | ≤ | 4.15 |
| TVIKNNMI | ≤ | 4.15 |
| ATAILRKA | = | 4.37 |
| NVRGSGMRILV | = | 4.34 |
| AVPNGTLV | ≤ | 4.15 |
| SAAFEDLRL | = | 5.03 |
| PAEMLANI | ≤ | 4.15 |
| GLQSSDDFA | = | 4.73 |
| RAEIIRMMEGA | = | 5.00 |
| IAYERMCNIL | = | 4.78 |
| TVPSERGL | ≤ | 4.15 |
| TVLGVSIL | = | 4.85 |
| PAEMLASI | ≤ | 4.15 |
| LLLVVQALR | = | 4.46 |
| CAAMDDFQL | = | 4.64 |
| NVTVTHSV | = | 4.84 |
| VLFQNWGI | = | 4.99 |
| NTVSSFQV | = | 4.22 |
| AAFEDLRL | = | 4.31 |
| TVQIIKLL | ≤ | 4.15 |
| GILHLILWIL | = | 5.11 |
| ATRRMIQL | ≤ | 4.15 |
| SAAFEDLRLL | = | 4.87 |
| ATVSADPL | ≤ | 4.15 |
| TVSSFQDIL | = | 5.05 |
| WILWISFAIS | = | 5.04 |
| ALSYSAGA | = | 4.97 |
| ATALANTI | = | 4.65 |
| PAHKSQLV | ≤ | 4.15 |
| PLIRHENRMVL | = | 4.77 |
